Tested on: SK-MEL-2 melanoma
Assay: NCI-60 one-dose screen, 48 h
Details: 10 µM unless noted
Compounds without any hit were thinned out: in the full panel of roughly 83,000, 20% have a hit. Activity calls are given as the source filed them. Rule for the calls: active = growth percent below 10; inactive = the rest.
Give one outcome, nothing more. List: active, inactive

Worked set:
COc1ccc(S(=O)(=O)n2cc(C=O)c3ccccc32)c(OC)c1: inactive
O=C(CN1CCN(c2cc(=O)n(-c3ccccc3)c3ccccc23)CC1)Nc1ccc([N+](=O)[O-])cc1: inactive
COc1ccc(-c2nc(SCCC(C)C)nc(N/N=C\c3ccc(O)cc3)c2C#N)cc1: inactive
COc1cc2cc(Oc3ccc(NC(=O)Nc4cc(C(F)(F)F)cc(C(F)(F)F)c4)cc3)c(C)nc2cc1OCCN(C)C: inactive
O=C(COc1cccc2cccnc12)Nc1ccc(C(=O)/C=C/c2ccc(Cl)cc2)cc1: inactive
CCCCCCCCCC[C@@H](C)[C@@H]1CC(=O)N[C@H]([C@@H](C)O)C(=O)N[C@@H](C)C(=O)N[C@H](C)C(=O)N[C@@H](CCC(N)=O)C(=O)N[C@H](Cc2ccc(O)cc2)C(=O)N[C@@H](C(C)CC)C(=O)O1 (stereo partly drawn): inactive

Any idea what this test logged for CCN1C(=O)N(CC)C2SC(N/N=C/c3ccccc3)=NC21 (stereo not drawn) ?
active

Same question for O=C(NNc1nc2cc(F)c(F)cc2n2cccc12)c1ncccn1 please.
inactive

###

Tested on: SNB-75 CNS
Test: NCI-60 one-dose screen, 48 h (100 = growth as untreated, 0 = no growth, -100 = all killed)
Conditions: 10 µM unless noted
This is part of a sample that, as a whole, favours compounds with a hit. Of some 83,000 tested, about 20% had one in any assay.
Exercise: for every item that follows, state its recorded growth.
Give bare numbers, in %.

Take a look at these entries with their results.
COc1cc2c3c(n(CCCNCC4CC4)c(=O)c2cc1OC)-c1cc2c(cc1C3=O)OCO2: 66.8
N#Cc1c(NC(=O)c2ccccc2C(F)(F)F)sc2c1CCC(=O)C2: 20.1
CCc1ccc(NC(=O)N[C@@H](Cc2cc(F)cc(F)c2)C(=O)N[C@@H]2C(=O)N3CCC[C@H]3C(=O)N3CCO[C@H](C)[C@H]3C(=O)N[C@@H](CO)C(=O)N3C[C@H](C)C[C@H]3C(=O)O[C@H]2C)c(F)c1: 20.3
Cc1ccc(/C=C/c2nn3c(-c4ccco4)nnc3s2)cc1: 108
C#Cc1ccc(NC(=O)c2ccc(/C=C/C(=O)c3nccn3C)cc2)c(F)c1: 17.7
COc1ccc(-c2cc(-c3cccc4ccccc34)n3c(n2)nc2ccccc23)cc1OC: 40.7
CCN(CC)CCN1C(=O)c2c(c3c4cccnc4[nH]c3c3ccc4ccccc4c23)C1=O: 54.3
COc1cc(CNC(=O)Cc2ccccc2[N+](=O)[O-])ccc1OCC(=O)NO: 95.6

Please look at the following compound next.
Suppose we examine the compound CC1=CC(=O)CC(C)(C)[C@@]1(O)/C=C/C(C)=C\C(=O)O ; what growth value has been reported?
-41.2

###

Tested on: LOX IMVI melanoma
Experiment: NCI-60 one-dose screen, 48 h
Conditions: 10 µM unless noted
About 83,000 compounds went through this panel and 20% of them were active in at least one assay; those are over-represented in the sample as a whole. Activity calls are given as the source filed them. The calls were made as follows: active = growth percent below 10; inactive = the rest.
One label from this list, please: active, inactive

Each compound tested received a call. Report the one for COc1cc(-c2noc(C[C@@H](NC(=O)OCc3ccccc3)C(C)C)n2)cc(OC)c1OC .
inactive

###

System: IGROV1 ovarian
Assay: NCI-60 one-dose screen, 48 h
Details: 10 µM unless noted
Compounds without any hit were thinned out: in the full panel of roughly 83,000, 20% have a hit. Calls of active or inactive are those of the source. Rule for the calls: active = growth percent below 10; inactive = the rest.
Your answer must be one of the following: True for active, False for inactive

Look over these answered cases.
COc1cc2oc(-c3cccc(NC(=O)c4cc(NC(=O)[C@H](C)NC(=O)OC(C)(C)C)ccc4C)c3)cc(=O)c2c(OC)c1OC: False
C#C[C@]1(O)CC[C@H]2[C@@H]3CC=C4c5sc(-c6ccccn6)nc5CC[C@]4(C)[C@H]3CC[C@@]21C: False

Dear colleague, could you share the recorded outcome for C=CCn1c(SCC(=O)Nc2cccc(C(=O)/C=C/c3ccccc3Cl)c2)nc2ccccc2c1=O when you have a moment?
False

Subsequent entry: O=C(Nc1cc(Cl)cc(Cl)c1)Nc1ccc2oc(=O)ccc2c1
False

Try O=C(Nc1ccccc1)Nc1nc2ccc([N+](=O)[O-])cc2s1 next.
False

Please give the result for CC1OC(O[C@@H]2[C@H](O)C(CO)OC(O[C@H]3COC(O[C@H]4CC[C@]5(C)[C@H]6CC[C@]78OC[C@@]9(CCC(C)(C)C[C@H]97)[C@H](O)C[C@@]8(C)[C@]6(C)CC[C@H]5C4(C)C)[C@@H](OC4OC(CO)[C@@H](O)[C@@H](O)[C@@H]4O)[C@@H]3O)[C@H]2OC2OC[C@@H](O)[C@@H](O)[C@@H]2O)[C@@H](O)[C@@H](O)[C@H]1O (some centres not stated) too.
True

What do you have for Cc1csc(Nc2cccc(Nc3nc(C)cs3)c2)n1 ?
False

###

Test system: UACC-62 melanoma
Assay: NCI-60 one-dose screen, 48 h (100 = growth as untreated, 0 = no growth, -100 = all killed)
Conditions: 10 µM unless noted
The panel holds about 83,000 compounds, 20% with a hit somewhere; the sample as a whole holds those more often.
Values of growth strictly less than 60% map to 1 (yes), and values of at least 60% map to 0 (no).

For orientation, consider the following solved cases.
CC(C)=CCc1c(O)c(CC=C(C)C)c2c(c1O)C(=O)C1=C[C@@H]3C[C@H]4C(C)(C)O[C@@](C/C=C(\C)C(=O)O)(C3=O)[C@@]14O2: 1 (yes)
C/C(=C(/c1ccc(O)cc1)c1ccc(OCCN2CCCCCC2)cc1)c1ccccc1: 1 (yes)
CN1C(=O)N(C)C2C1NN=c1s/c(=C\c3ccccn3)c(=O)n12 (centres undefined): 0 (no)

Decide: growth of Cn1c(SC(C(=O)Nc2ccc(F)cc2)c2ccccc2)nc2ccccc2c1=O (centres undefined) strictly below 60%?
0 (no)

And the next one, O=C(NNc1nc2cc(F)c(F)cc2n2cccc12)c1cccnn1 ?
1 (yes)

Record: O=C(Nc1ccccc1)Nc1nc2ccc([N+](=O)[O-])cc2s1
1 (yes)

Item: O=C(O)c1ccc(-n2cc(CNc3ccc(F)cc3)c(-c3ccc(C(F)(F)F)cc3)n2)cc1
0 (no)

Also need C/C(=C(/C)C1CC1CCN(C(=O)c1ccccn1)S(=O)(=O)c1ccc(C)cc1)C1CCCCC1 (centres undefined) , thanks.
0 (no)

O=C(NCCCNc1cc(-c2cn(-c3ccccc3)nc2-c2cccc(O)c2)ccn1)Nc1cccc(C(F)(F)F)c1 , same question.
1 (yes)

###

Tested on: NCI-H226 lung
Assay: NCI-60 one-dose screen, 48 h (100 = growth as untreated, 0 = no growth, -100 = all killed)
Conditions: 10 µM unless noted
The panel holds about 83,000 compounds, 20% with a hit somewhere; the sample as a whole holds those more often.
measured.property: growth (%)
Numbers only, in %.

CCCCCCNC(=O)Oc1ccc(/C(=C(\C)c2ccc(Cl)cc2)c2ccc(OCCN(C)C)cc2)cc1: 101
COCCOc1ccc(-c2csc(NC(=O)CN3CCN(CCO)CC3)n2)cc1NS(=O)(=O)c1cccc2c(N(C)C)cccc12: 70.9
O=C1[C@@H]2Cc3c([nH]c4ccccc34)[C@H](c3c(Cl)cccc3Cl)N2C(=O)CN1C1CCN(Cc2ccccc2)CC1: 74.9

Please turn your attention to the following entry.
NCI-H226 lung / growth / COc1cc(OC)c(S(N)(=O)=O)cc1C(=O)/C=C/c1ccccc1 : value?
38.8

###

Test system: MALME-3M melanoma
Test: NCI-60 one-dose screen, 48 h (100 = growth as untreated, 0 = no growth, -100 = all killed)
Details: 10 µM unless noted
This is part of a sample that, as a whole, favours compounds with a hit. Of some 83,000 tested, about 20% had one in any assay.
measured.property: growth (%)
One number for each entry, in %.

Solved cases below.
C/C(=N\NC(=O)CSc1nc2sc3c(c2c(=O)n1-c1ccccc1)CCC(C)C3)c1ccc(Cl)cc1 (centres undefined): 29.1
Clc1ccccc1/C=C/c1nn2c(-c3ccncc3)nnc2s1: 100
CCNCc1c(-c2cccc(OC(F)(F)F)c2)[nH]c2ccc(N3CCCC3)cc2c1=O: 39.5
COc1ccc(Cn2cc3c(c2-c2cc(OC)c(OC)c(OC)c2)CCCc2cnoc2-3)cc1N: 54.9
CC(C)N=C(N/C(N)=N/c1nc2ccccc2s1)NC(C)C: 75.4

Quick request: growth for each listed item, please.
1. N#C/C(=C\c1ccc(N2CCCCC2)cc1)C(=O)Nc1sc2c(c1C#N)CCC2
2. O=C(Nc1cc(Cl)cc(Cl)c1)Nc1nc2ccc([N+](=O)[O-])cc2s1
3. CCCCCCNC(=O)Oc1ccc(/C(=C(/C)c2ccc(Cl)cc2)c2ccc(OCCN3CCCC3)cc2)cc1
4. Cc1cnc2nc(NN)[nH]n12

100
-8.59
-70.8
102

Lab note: each molecule below needs its growth filled in.
1. COc1ccc([C@@H]2[C@@H](O)C(=O)N2c2cc(OC)c(OC)c(OC)c2)cc1
2. COc1cc2c3c(n(CCCNC4CCCCC4)c(=O)c2cc1OC)-c1cc2c(cc1C3=O)OCO2
3. CCOc1ccc2nc(NC(=O)Nc3ccccc3C)sc2c1
4. CC(C)=CCc1c(O)c(CC=C(C)C)c2c(c1O)C(=O)C1=C[C@@H]3C[C@H]4C(C)(C)O[C@@](C/C=C(\C)C(=O)O)(C3=O)[C@@]14O2
5. CC(=O)c1sc(Nc2cccc(Nc3nc(C)c(C)s3)c2)nc1C
6. Oc1ccc(CSc2nnc(-c3ccncc3)n2-c2ccccc2)c2cccnc12

1. 49.9
2. -46.9
3. 48.6
4. -19.3
5. 69.8
6. 31.8

Please state growth for every molecule in the list that follows.
1. CC(C)=CCC[C@](C)(O)[C@H]1CC[C@]2(C)[C@@H]1CC[C@@H]1[C@@]3(C)CCC(NC(=O)c4ccccc4C(=O)O)C(C)(C)[C@@H]3CC[C@]12C (some centres undefined)
2. O=C1[C@H]2Cc3c([nH]c4ccccc34)[C@@H](c3ccc(Cl)cc3)N2C(=O)CN1C1CCN(Cc2c(Cl)cccc2Cl)CC1
3. CC1COc2c(N3CCN(C)CC3)c(F)cc3c(=O)c(C(=O)N/N=C/c4cc[nH]c4)cn1c23 (centres undefined)

1. 31.8
2. 65.8
3. -3.02

Which growth is reported for this molecule? CCOC(=O)c1ccc(N/C=C/C(=O)c2ccccc2)cc1
107
